- EXPERIMENTAL_PROTOCOL: Cytotoxicity MTT assay, L-02
- Type: cell-based
- DETAILS: human, L-02 cells (normal hepatic cell line), 25 μg/mL
MEASUREMENT_KIND: viability at 72 h, 25 µg/mL (%)
One number for each entry, in %.

[[record]]
structure_notation = "NC(=S)NC(=O)Cc1cccc(O)c1"
measurement_kind = "viability at 72 h, 25 µg/mL"
unit_text = "%"
measured_number = 93.7

[[record]]
structure_notation = "NC(=S)NC(=O)Cc1ccc(Br)cc1"
measurement_kind = "viability at 72 h, 25 µg/mL"
unit_text = "%"
measured_number = 91.5

[[record]]
structure_notation = "NC(=S)NC(=O)Cc1ccc(O)cc1"
measurement_kind = "viability at 72 h, 25 µg/mL"
unit_text = "%"
measured_number = 92.1


Provide the reported viability at 72 h, 25 µg/mL of each entry below, same order.
1. NC(=S)NC(=O)Cc1ccc(F)cc1
2. COc1ccc(CC(=O)NC(N)=S)cc1
3. Cc1ccc(CC(=O)NC(N)=S)cc1

Response line:
[96.1, 97, 114]

Prompt line: What viability at 72 h, 25 µg/mL value was documented for this compound, "COc1ccc(CC(=O)NC(N)=S)cc1OC" ?
Response line: 108

* * *

- TEST_TARGET: urease in intact H. pylori cell (Helicobacter pylori)
- Construct: H. pylori urease was replaced by 25 µL of cell suspension (4.0 × 10^7 CFU/mL); endogenous in cells; host or cells: intact H. pylori ATCC 43504 cells
- Sequence (P69996 whole entry): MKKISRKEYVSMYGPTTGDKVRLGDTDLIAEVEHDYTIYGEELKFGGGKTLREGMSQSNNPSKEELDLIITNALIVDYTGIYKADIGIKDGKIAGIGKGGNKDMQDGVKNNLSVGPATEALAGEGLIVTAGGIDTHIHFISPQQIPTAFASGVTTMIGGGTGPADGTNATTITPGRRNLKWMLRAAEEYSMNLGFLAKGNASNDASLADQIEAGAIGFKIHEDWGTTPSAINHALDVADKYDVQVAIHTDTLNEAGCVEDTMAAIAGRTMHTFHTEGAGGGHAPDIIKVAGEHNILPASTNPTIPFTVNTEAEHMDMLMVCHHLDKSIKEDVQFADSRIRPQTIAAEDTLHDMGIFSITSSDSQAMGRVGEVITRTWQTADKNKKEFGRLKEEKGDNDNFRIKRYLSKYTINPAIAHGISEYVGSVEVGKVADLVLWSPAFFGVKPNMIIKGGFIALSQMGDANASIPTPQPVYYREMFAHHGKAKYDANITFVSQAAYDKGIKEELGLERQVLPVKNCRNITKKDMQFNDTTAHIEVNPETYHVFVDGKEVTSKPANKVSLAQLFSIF
- Sequence (P14916 whole entry, further chain): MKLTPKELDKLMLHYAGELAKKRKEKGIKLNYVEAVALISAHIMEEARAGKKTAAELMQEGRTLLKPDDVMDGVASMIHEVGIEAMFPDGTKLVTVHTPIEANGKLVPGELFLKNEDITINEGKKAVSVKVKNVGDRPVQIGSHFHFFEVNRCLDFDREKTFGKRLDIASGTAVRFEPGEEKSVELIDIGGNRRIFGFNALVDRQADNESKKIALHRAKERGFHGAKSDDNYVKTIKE
- EXPERIMENTAL_PROTOCOL: Urease inhibition in intact H. pylori cell (indophenol method)
- Assay type: cell-based
- DETAILS: intact H. pylori cell suspension; read-out: IC50 Urease in intact cell
MEASUREMENT_KIND: pIC50
Numbers only, as −log10 of the molar value.

Prompt line: What pIC50 value was documented for this molecule, CC(=O)NO [AHA, acetohydroxamic acid, reference compound] ?
Response line: 3.77

* * *

Exercise: state measured melting point for each of the molecules provided.

Provide the reported melting point of each entry below, same order.
1. NC(=S)NC(=O)Cc1ccc(Cl)cc1 [b19]
2. NC(=S)NC(=O)Cc1cccc(Cl)c1 [b7]
3. COc1cccc(CC(=O)NC(N)=S)c1 [b5]
4. COc1ccc(CC(=O)NC(N)=S)cc1 [b11]
5. NC(=S)NC(=O)Cc1ccc2c(c1)OCO2 [b28]
6. NC(=S)NC(=O)Cc1ccc2ccccc2c1 [b24]

Response line:
1: 184.1 to 186.6 °C; 2: 136.6 to 137.4 °C; 3: 184.5 to 186.1 °C; 4: 143.5 to 144.7 °C; 5: 153.5 to 155 °C; 6: 202.6 to 204.4 °C

* * *

- EXPERIMENTAL_PROTOCOL: Cytotoxicity MTT assay, P69
- Assay type: cell-based
- DETAILS: human, P69 cells (normal prostate cell line), 25 μg/mL
MEASUREMENT_KIND: viability at 72 h, 25 µg/mL (%)
Numbers only, in %.

[[record]]
structure_notation = "Cc1ccc(CC(=O)NC(N)=S)cc1"
measurement_kind = "viability at 72 h, 25 µg/mL"
unit_text = "%"
measured_number = 89.9

[[record]]
structure_notation = "NC(=S)NC(=O)Cc1ccc(O)cc1"
measurement_kind = "viability at 72 h, 25 µg/mL"
unit_text = "%"
measured_number = 94.6

[[record]]
structure_notation = "COc1ccc(CC(=O)NC(N)=S)cc1OC"
measurement_kind = "viability at 72 h, 25 µg/mL"
unit_text = "%"
measured_number = 95.3

[[record]]
structure_notation = "NC(=S)NC(=O)Cc1cccc(O)c1"
measurement_kind = "viability at 72 h, 25 µg/mL"
unit_text = "%"
measured_number = 88.1

[[record]]
structure_notation = "COc1ccc(CC(=O)NC(N)=S)cc1"
measurement_kind = "viability at 72 h, 25 µg/mL"
unit_text = "%"
measured_number = 87.5


Provide the reported viability at 72 h, 25 µg/mL of each entry below, same order.
1. NC(=S)NC(=O)Cc1ccc(F)cc1
2. NC(=S)NC(=O)Cc1ccc(Br)cc1

Response line:
97.6
89.4
